# tested-on: human prostanoid EP4 receptor (Homo sapiens, UniProt P35408)
# Construct: expressed in transfected cells
# Sequence (P35408 whole entry): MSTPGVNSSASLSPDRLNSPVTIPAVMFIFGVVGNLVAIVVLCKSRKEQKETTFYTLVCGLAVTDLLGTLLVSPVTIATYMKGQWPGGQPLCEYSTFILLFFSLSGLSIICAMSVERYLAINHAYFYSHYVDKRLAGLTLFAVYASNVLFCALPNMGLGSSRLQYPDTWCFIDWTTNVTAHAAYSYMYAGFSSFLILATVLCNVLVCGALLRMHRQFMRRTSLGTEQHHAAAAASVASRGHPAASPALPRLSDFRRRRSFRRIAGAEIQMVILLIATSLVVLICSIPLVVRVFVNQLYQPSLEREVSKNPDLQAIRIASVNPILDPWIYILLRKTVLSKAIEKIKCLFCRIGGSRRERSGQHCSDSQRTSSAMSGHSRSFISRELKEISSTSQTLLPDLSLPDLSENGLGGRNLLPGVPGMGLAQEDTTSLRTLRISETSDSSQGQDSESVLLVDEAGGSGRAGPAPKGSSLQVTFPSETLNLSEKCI
# experiment-summary: FLIPR Ca2+ signaling antagonist assay, EP4 receptor stable cell line
# Type: cell-based
# condition-description: HEK-293 EBNA stable cell line; standard agonist PGE2; NA = inactive (no antagonism or Kb 10,000 nM); PAg, Ag not defined
measured-metric: Kb

Okay, here is my list. What is Kb for each of these?
1. CCC(CC)COc1ccc(F)cc1Cn1nc(CCC(=O)O)cc1C
2. Cc1cc(CCC(=O)O)nn1Cc1cc(Cl)ccc1C#CC1CCCC1
3. CCCCC(CC)COc1ccc(Br)cc1Cn1nc(CCC(=O)O)cc1C (stereo not shown)
4. CCC(C)CCOc1ccc(Cl)cc1Cn1nc(CCC(=O)O)cc1C (stereo not shown)

1: 400 nM; 2: 600 nM; 3: 1100 nM; 4: 600 nM

###

For each entry below, report its log10 of Kb value.
# tested-on: human prostanoid FP receptor (Homo sapiens, UniProt P43088)
# Construct: expressed in transfected cells
# Sequence (P43088 whole entry): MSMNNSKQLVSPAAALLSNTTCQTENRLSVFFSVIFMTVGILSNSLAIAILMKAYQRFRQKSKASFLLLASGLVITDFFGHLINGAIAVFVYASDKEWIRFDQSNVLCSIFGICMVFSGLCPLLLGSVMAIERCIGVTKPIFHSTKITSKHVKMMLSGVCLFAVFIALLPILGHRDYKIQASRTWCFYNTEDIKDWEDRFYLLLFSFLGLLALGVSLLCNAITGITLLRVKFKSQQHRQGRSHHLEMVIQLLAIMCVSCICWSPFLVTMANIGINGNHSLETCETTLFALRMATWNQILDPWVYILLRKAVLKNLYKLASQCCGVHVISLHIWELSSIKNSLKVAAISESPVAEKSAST
# experiment-summary: FLIPR Ca2+ signaling antagonist assay, FP receptor stable cell line
# Format: cell-based
# condition-description: HEK-293 EBNA stable cell line; standard agonist 17-phenyl-PGF2α; NA = inactive (no antagonism or Kb 10,000 nM); PAg, Ag not defined
Each number you see is log10 of Kb, and the unit inside the log is nM.

{"compound": "Cc1cc(CCC(=O)O)nn1Cc1cc(Cl)ccc1OCC1CCCCC1", "log10 of Kb": 2.30}
{"compound": "Cc1cc(CCC(=O)O)nn1Cc1cc(Br)ccc1OCC(C)C", "log10 of Kb": 1.85}
{"compound": "CCCCCCCOc1ccc(Br)cc1Cn1nc(CCC(=O)O)cc1C", "log10 of Kb": 2.70}
{"compound": "Cc1cc(CCC(=O)NS(=O)(=O)C(F)(F)F)nn1Cc1cc(Cl)ccc1OCC(C)C", "log10 of Kb": 2.70}
{"compound": "CCC(CC)Oc1ccc(Cl)cc1Cn1nc(CCC(=O)O)cc1C", "log10 of Kb": 2.82}
{"compound": "Cc1cc(CCC(=O)NS(=O)(=O)C(F)(F)F)nn1Cc1cc(Cl)ccc1OCc1ccc(Cl)cc1Cl", "log10 of Kb": 1.95}
{"compound": "CCC(CC)COc1ccc(Cl)cc1Cn1nc(CC(C)C(=O)O)cc1C (racemic)", "log10 of Kb": 2.60}
{"compound": "COc1ccc(COc2ccc(Cl)cc2Cn2nc(CCC(=O)O)cc2C)cc1", "log10 of Kb": 2.30}
{"compound": "Cc1cc(CCC(=O)O)nn1Cc1cc(Cl)ccc1OCCCCC(C)C", "log10 of Kb": 2.23}
{"compound": "Cc1cc(CCC(=O)O)nn1Cc1cc(Cl)ccc1OCCC1CCCC1", "log10 of Kb": 2.48}

Okay, here is my list. What is log10 of Kb for each of these?
1. COc1ccc(OCC2CC2)c(Cn2nc(CCC(=O)O)cc2C)c1
2. Cc1cc(CCCCC(=O)O)nn1Cc1cc(Cl)ccc1OCC1CCCC1
3. Cc1cc(CCC(=O)NS(=O)(=O)C(F)(F)F)nn1Cc1cc(Cl)ccc1OCC1CCCC1
4. C/C=C(\C)COc1ccc(Br)cc1Cn1nc(CCC(=O)O)cc1C

3.00
2.30
2.60
2.60

Find the measured log10 of Kb: item Cc1cc(CCC(=O)O)nn1Cc1cc(OC(F)(F)F)ccc1OCc1ccc(Cl)cc1 , target or system human prostanoid FP receptor (Homo sapiens, UniProt P43088).
1.30
